These data points were gathered from PubChem BioAssay (Tox21).

- ASSAY SYSTEM: Nuclear receptor ROR-gamma (Homo sapiens)
- ASSAY OVERVIEW: qHTS assay to identify small molecule antagonists of the retinoid-related orphan receptor gamma (ROR-gamma) signaling pathway (AID 1159521;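 also: CHO cells with doxycycline inducible ROR-gamma driving an RORE luciferase reporter; top concentration of the series differs between compounds; nearly all actives have a fitted effect of over 50% in size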)
- EXPERIMENTAL SETUP: Tet-on RORgamma CHO cells, RORE-luciferase, 16 h; series mostly up to 92.4 µM
Records with an inconclusive call do not appear. Calls of active or inactive are those of the source. Calls follow the shape of the dose curve; as a rule, active = well fitted inhibition curve with a large enough effect in the repeat runs; inconclusive = weak or mixed curves, or effect the other way; inactive = no such curve, though single readings can be large or run the other way.
Allowed answers: active, inactive

>  <COMPOUND>
CCCNC(C)C(=O)Nc1ccccc1C (stereo not given)

>  <LABEL>
inactive

$$$$
>  <COMPOUND>
COC(=O)/C=C/c1ccccc1

>  <LABEL>
inactive

$$$$
>  <COMPOUND>
CC[C@@H](N)CO

>  <LABEL>
inactive

$$$$
>  <COMPOUND>
Cc1occc(=O)c1OC(=O)C(C)C

>  <LABEL>
inactive

$$$$

Please share the test call associated with Cc1ccnc2c1NC(=O)c1cccnc1N2C1CC1 .
inactive

Please share the test call associated with O=C(Oc1ccccc1)c1ccccc1O .
inactive

Please share the test call associated with O=C(O)c1cn(-c2ccc(F)cc2)c2cc(N3CCNCC3)c(F)cc2c1=O .
inactive

Please share the test call associated with c1cnc2cc3c(cc2n1)C1CNCC3C1 .
inactive

Please share the test call associated with CNC1(C)C2CCC(C2)C1(C)C (stereo not given) .
inactive

Please share the test call associated with NC(N)=Nc1nc(CSCC/C(N)=N/S(N)(=O)=O)cs1 .
inactive

Please share the test call associated with CCN(CC)c1ccc2c(C)cc(=O)oc2c1 .
inactive

Please share the test call associated with CC1COc2c(N3CCN(C)CC3)c(F)cc3c(=O)c(C(=O)O)cn1c23 (stereo not given) .
inactive

Please share the test call associated with O=C(OCc1ccccc1)c1ccc(O)cc1 .
inactive

Please share the test call associated with O=c1n(CC2CO2)c(=O)n(CC2CO2)c(=O)n1CC1CO1 (stereo not given) .
inactive
